Target: BirA (E. coli biotin protein ligase; BirA wt) (Escherichia coli, UniProt P06709, E313A)
Assay: ITC, direct titration, single-site model
metric: Kd (nM)
Provide only the numeric value, understood in nM.

Kd reading for Nc1ncnc2c1ncn2[C@@H]1O[C@H](COP(=O)(O)OC(=O)CCCC[C@@H]2SC[C@@H]3NC(=O)N[C@@H]32)[C@@H](O)[C@H]1O : 10
